# assay_details: total protein half-life in vivo (active degradation + dilution); higher = more stable protein
# details: E. coli NCM3722 delta-lon; growth: N-lim chemostat; doubling time 6 h
Binary call on total protein half-life in vivo: Yes from 4 h upward, No beneath that.

INSERT INTO results (residue_sequence, class) VALUES
  ('MSETASWQPSASIPNLLKRAAIMAEIRRFFADRGVLEVETPCMSQATVTDIHLVPFETRFVGPGHSQGMNLWLMTSPEYHMKRLLVAGCGPVFQLCRSFRNEEMGRYHNPEFTMLEWYRPHYDMYRLMNEVDDLLQQVLDCPAAESLSYQQAFLRYLEIDPLSADKTQLREVAAKLDLSNVADTEEDRDTLLQLLFTFGVEPNIGKEKPTFVYHFPASQASLAQISTEDHRVAERFEVYYKGIELANGFHELTDAREQQQRFEQDNRKRAARGLPQHPIDQNLIEALKVGMPDCSGVALGVDRLVMLALGAETLAEVIAFSVDRA [P0A8N7]', 'No'),
  ('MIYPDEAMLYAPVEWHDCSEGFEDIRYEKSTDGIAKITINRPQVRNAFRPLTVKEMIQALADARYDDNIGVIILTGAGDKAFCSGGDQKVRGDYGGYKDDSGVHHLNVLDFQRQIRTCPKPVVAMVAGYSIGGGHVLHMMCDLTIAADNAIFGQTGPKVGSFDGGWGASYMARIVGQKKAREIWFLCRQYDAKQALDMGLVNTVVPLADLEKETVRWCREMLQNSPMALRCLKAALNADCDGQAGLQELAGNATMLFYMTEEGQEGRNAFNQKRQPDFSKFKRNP [P0ABU0]', 'Yes'),
  ('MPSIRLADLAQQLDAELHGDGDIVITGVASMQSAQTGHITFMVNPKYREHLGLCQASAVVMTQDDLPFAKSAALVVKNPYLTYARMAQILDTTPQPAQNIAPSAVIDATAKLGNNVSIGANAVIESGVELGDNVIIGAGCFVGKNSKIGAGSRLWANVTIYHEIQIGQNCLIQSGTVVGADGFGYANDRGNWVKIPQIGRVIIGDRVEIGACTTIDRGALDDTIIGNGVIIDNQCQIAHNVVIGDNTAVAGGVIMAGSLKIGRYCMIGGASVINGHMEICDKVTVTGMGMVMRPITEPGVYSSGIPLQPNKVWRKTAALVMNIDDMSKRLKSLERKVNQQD', 'Yes'),
  ('MIIIRYLVRETLKSQLAILFILLLIFFCQKLVRILGAAVDGDIPANLVLSLLGLGVPEMAQLILPLSLFLGLLMTLGKLYTESEITVMHACGLSKAVLVKAAMILAVFTAIVAAVNVMWAGPWSSRHQDEVLAEAKANPGMAALAQGQFQQATNGSSVLFIESVDGSDFKDVFLAQIRPKGNARPSVVVADSGHLTQLRDGSQVVTLNQGTRFEGTALLRDFRITDFQDYQAIIGHQAVALDPNDTDQMDMRTLWNTDTDRARAELNWRITLVFTVFMMALMVVPLSVVNPRQGRVLSMLPAMLLYLLFFLIQTSLKSNGGKGKLDPTLWMWTVNLIYLALAIVLNLWDTVPVRRLRASFSRKGAV [P0AF98]', 'Yes'),
  ('MPYKTKSDLPESVKHVLPSHAQDIYKEAFNSAWDQYKDKEDRRDDASREETAHKVAWAAVKHEYAKGDDDKWHKKS [P0AE63]', 'Yes'),
  ('MTTMLEVAKRAGVSKATVSRVLSGNGYVSQETKDRVFQAVEESGYRPNLLARNLSAKSTQTLGLVVTNTLYHGIYFSELLFHAARMAEEKGRQLLLADGKHSAEEERQAIQYLLDLRCDAIMIYPRFLSVDEIDDIIDAHSQPIMVLNRRLRKNSSHSVWCDHKQTSFNAVAELINAGHQEIAFLTGSMDSPTSIERLAGYKDALAQHGIALNEKLIANGKWTPASGAEGVEMLLERGAKFSALVASNDDMAIGAMKALHERGVAVPEQVSVIGFDDIAIAPYTVPALSSVKIPVTEMIQEIIGRLIFMLDGGDFSPPKTFSGKLIRRDSLIAPSR', 'Yes');

(Q) Has `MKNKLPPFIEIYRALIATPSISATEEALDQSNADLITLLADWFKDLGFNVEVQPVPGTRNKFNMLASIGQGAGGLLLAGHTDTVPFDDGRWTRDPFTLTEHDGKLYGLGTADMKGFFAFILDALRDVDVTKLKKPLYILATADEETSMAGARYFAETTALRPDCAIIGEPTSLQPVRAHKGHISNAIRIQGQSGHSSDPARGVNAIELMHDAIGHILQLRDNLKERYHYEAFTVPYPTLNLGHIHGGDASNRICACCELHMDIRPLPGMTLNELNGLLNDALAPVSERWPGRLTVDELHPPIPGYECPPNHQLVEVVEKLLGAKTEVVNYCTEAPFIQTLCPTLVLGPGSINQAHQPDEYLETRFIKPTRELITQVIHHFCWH` a recorded total protein half-life in vivo greater than or equal to 4 h?
(A) Yes

(Q) Has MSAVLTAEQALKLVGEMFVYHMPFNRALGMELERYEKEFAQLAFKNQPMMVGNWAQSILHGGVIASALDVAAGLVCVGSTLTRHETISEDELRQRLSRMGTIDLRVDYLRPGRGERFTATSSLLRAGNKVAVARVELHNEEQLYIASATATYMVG [P0ADP2] a recorded total protein half-life in vivo greater than or equal to 4 h?
(A) No

(Q) Has `MSEIKDVIVQGLWKNNSALVQLLGLCPLLAVTSTATNALGLGLATTLVLTLTNLTISTLRHWTPAEIRIPIYVMIIASVVSAVQMLINAYAFGLYQSLGIFIPLIVTNCIVVGRAEAFAAKKGPALSALDGFSIGMGATCAMFVLGSLREIIGNGTLFDGADALLGSWAKVLRVEIFHTDSPFLLAMLPPGAFIGLGLMLAGKYLIDERMKKRRAEAAAERALPNGETGNV` a recorded total protein half-life in vivo greater than or equal to 4 h?
(A) No

(Q) Has MSKCSADETPVCCCMDVGTIMDNSDCTASYSRVFANRAEAEQTLAALTEKARSVESEPCKITPTFTEESDGVRLDIDFTFACEAEMLIFQLGLR [P0AD33] a recorded total protein half-life in vivo greater than or equal to 4 h?
(A) No

(Q) Has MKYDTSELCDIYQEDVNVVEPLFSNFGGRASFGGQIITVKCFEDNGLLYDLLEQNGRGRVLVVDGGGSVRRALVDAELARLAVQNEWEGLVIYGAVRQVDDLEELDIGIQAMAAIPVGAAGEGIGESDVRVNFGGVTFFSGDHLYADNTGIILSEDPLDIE [P0A8R0] a recorded total protein half-life in vivo greater than or equal to 4 h?
(A) Yes
